system: OVCAR-4; assay: NCI tumour cell line growth inhibition, 48 h
Active and inactive are the calls of the source. Cut-off read from the data, not from the text of the source: active = GI50 up to about 1.1 µM and inactive = higher.
Provide the recorded GI50 for the entries that follow.

CN(C)CCCNC(=O)c1cc2/c(=C\c3ccc(N(C)C)cc3)c3ccccc3n2[n+]1C on OVCAR-4 gives GI50 = 8.77 µM (inactive)

CCOC(=O)N/N=C(\Cc1ccc([N+](=O)[O-])cc1)OCC on OVCAR-4 gives GI50 = > 100 µM (inactive)

O=C1Oc2ccc([N+](=O)[O-])cc2N/C1=C\C(=O)c1ccccc1 on OVCAR-4 gives GI50 = > 100 µM (inactive)
